Items are presented alongside their recorded Relative activity.
- Experiment summary: Compound evaluated for drug latentiation activity by determining relative rate of cleavage by gamma-glutamyl transpeptidase
- Format: functional
Residues, ends and D or L forms follow the SMILES beside them.
Lab note: jot the number down without any unit.

Prompt: // lookup Relative activity for NC(CCC(=O)NCCCC(=O)O)C(=O)O (stereo not given)
Completion: 9

Prompt: Give the measured Relative activity of NC(=O)CC[C@H](N)C(=O)NCC(=O)O (H-Gln-Gly-OH) .
Completion: 70

Prompt: If you can, please state the reported Relative activity value of CCC(NC(=O)CCC(N)C(=O)O)C(=O)O (stereo not given) .
Completion: 95

Prompt: So what does the record say about Relative activity for NC(CCC(=O)Nc1ccccc1O)C(=O)O (stereo not given) ?
Completion: 95

Prompt: Param item = NC(CCC(=O)NC1(C(=O)O)CCCC1)C(=O)O (stereo not given) ; retrieve measured Relative activity.
Completion: 19

Further cases:
Prompt: # lookup: Relative activity of NC(CCC(=O)Nc1ccc(O)cc1)C(=O)O (stereo not given)
Completion: 98

Prompt: So what's the measured Relative activity for this one? NC(CCC(=O)Nc1cccc(O)c1)C(=O)O (stereo not given)
Completion: 96

----------
- Experiment summary: Compound evaluated for drug latentiation activity by determining relative rate of cleavage by gamma-glutamyl transpeptidase
- Assay type: functional
Recorded endpoint: Relative activity

Prompt: Which Relative activity is reported for this molecule? NC(CCC(=O)N1CCCC1C(=O)O)C(=O)O (stereo not drawn)
Completion: 4

Prompt: Requested read-out: Relative activity. Entry: `CSC[C@H](NC(=O)CC[C@H](N)C(=O)O)C(=O)NCC(=O)O`
Completion: 100

Prompt: Requested read-out: Relative activity. Entry: NC(CCC(=O)N1CSCC1C(=O)O)C(=O)O (stereo not drawn)
Completion: 5
